- Target under test: GPR139 (Homo sapiens)
- Assay info: GPR139 Agonist titration / agonist counterscreen assay (calcium detection, HEK-GPR139 cells)
- Assay type: cell-based
- Set-up: expressed in transfected cells; host or cells: HEK Aequorin cells, Maxcyte transient transfection
- Test context: GPR139 Agonist Activity
Outcome measure: Hill Slope

>  <Molecule>
CCOC(=O)C1CCN(C(=O)C2CC(Cc3cccc4ccccc34)=NO2)CC1 (centres unmarked)

>  <Outcome measure>
Hill Slope

>  <Measured>
0.84

$$$$
>  <Molecule>
Cc1ccc2c(c1)-c1c(cnn1CC(=O)Nc1ncccc1C)CO2

>  <Outcome measure>
Hill Slope

>  <Measured>
1.43

$$$$
>  <Molecule>
Cl.Cl.Nc1[nH]ncc1-c1ccc(NC(=O)[C@H](N)Cc2cccc(F)c2)cc1

>  <Outcome measure>
Hill Slope

>  <Measured>
0.72

$$$$
>  <Molecule>
O=C(Cn1ncc2c1-c1ccccc1OC2)Nc1ccc(CCO)cc1

>  <Outcome measure>
Hill Slope

>  <Measured>
0.93

$$$$
>  <Molecule>
Cc1c(Cl)c([N+](=O)[O-])nn1CC(=O)NC(C)COc1ccccc1 (centres unmarked)

>  <Outcome measure>
Hill Slope

>  <Measured>
1.01

$$$$
>  <Molecule>
CCCN1C(=O)CCc2cc(NC(=O)NCCc3ccc(OC)cc3)ccc21

>  <Outcome measure>
Hill Slope

>  <Measured>
1.67

$$$$
>  <Molecule>
N[C@H](Cc1ccccc1Cl)c1nc2ccc(-c3ccncc3)cc2[nH]1.O=C(O)C(F)(F)F.O=C(O)C(F)(F)F

>  <Outcome measure>
Hill Slope

>  <Measured>
1.48

$$$$
>  <Molecule>
COc1ccc(C)cc1NC(=O)NNC(=O)C(C)Oc1ccc(F)cc1Cl (centres unmarked)

>  <Outcome measure>
Hill Slope

>  <Measured>
1.11

$$$$
>  <Molecule>
Cc1ccccc1-c1nc(C[S+]([O-])CC(=O)NC(C)CCc2ccccc2)c(C)o1 (centres unmarked)

>  <Outcome measure>
Hill Slope

>  <Measured>
0.47

$$$$
>  <Molecule>
CCCC1(CCC)NC(=O)N(CC(=O)NCc2ccc(Cl)cc2)C1=O

>  <Outcome measure>
Hill Slope

>  <Measured>
0.73

$$$$
>  <Molecule>
Cc1onc(-c2ccccc2Cl)c1C(=O)N1CCC(Cn2ccnc2C)CC1

>  <Outcome measure>
Hill Slope

>  <Measured>
0.51

$$$$
>  <Molecule>
O=C(CSc1ccc(Cl)cc1)NNC(=O)c1ccc([N+](=O)[O-])cc1

>  <Outcome measure>
Hill Slope

>  <Measured>
0.60

$$$$
>  <Molecule>
O=C(CC1CCN(Cc2ccccc2O)C1=O)C1CCC(c2cccc(O)c2)C(O)C1 (centres unmarked)

>  <Outcome measure>
Hill Slope

>  <Measured>
1.51

$$$$
>  <Molecule>
COc1ccccc1NC(=O)C(=O)NNC(=O)COc1ccc(Br)cc1C

>  <Outcome measure>
Hill Slope

>  <Measured>
0.69

$$$$
>  <Molecule>
O=C(CSCc1cccc2ccccc12)Nc1c[nH]c(=O)[nH]c1=O

>  <Outcome measure>
Hill Slope

>  <Measured>
1.48

$$$$
>  <Molecule>
O=C(CCc1ccccc1)NNC(=O)C12CC3CC(CC(C3)C1)C2

>  <Outcome measure>
Hill Slope

>  <Measured>
2.04

$$$$
>  <Molecule>
CCc1c(C2C(C(=O)OCc3ccccc3)=C(C)CC3=C2C(=O)CCC3)ccc(OC)c1OC (centres unmarked)

>  <Outcome measure>
Hill Slope

>  <Measured>
1.97

$$$$

====

Consider the following molecules and their measured Lipophilic Efficiency (logP) readings.
- Target under test: GPR139 (Homo sapiens, UniProt Q6DWJ6)
- Sequence (Q6DWJ6 1-353): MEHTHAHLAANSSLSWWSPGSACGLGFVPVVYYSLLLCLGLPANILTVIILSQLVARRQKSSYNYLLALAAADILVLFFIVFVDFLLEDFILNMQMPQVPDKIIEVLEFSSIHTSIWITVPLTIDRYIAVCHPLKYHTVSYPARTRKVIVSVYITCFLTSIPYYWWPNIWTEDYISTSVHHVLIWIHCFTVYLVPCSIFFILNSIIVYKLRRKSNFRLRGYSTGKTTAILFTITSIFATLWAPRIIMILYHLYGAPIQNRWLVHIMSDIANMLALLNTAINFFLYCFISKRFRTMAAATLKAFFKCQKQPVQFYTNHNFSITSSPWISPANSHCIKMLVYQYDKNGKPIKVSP
- Assay info: GPR139 Agonist titration / agonist counterscreen assay (calcium detection, HEK-GPR139 cells)
- Type: cell-based
- Set-up: expressed in transfected cells; host or cells: HEK Aequorin cells, Maxcyte transient transfection
- Test context: GPR139 Agonist Activity; based on logP

>  <Molecule>
O=C(CSCc1ccc(Cl)cc1Cl)NNC(=O)c1ccccc1 [SR-01000295701]

>  <Target under test>
GPR139 (Homo sapiens, UniProt Q6DWJ6)

>  <Lipophilic Efficiency (logP)>
5.47

$$$$
>  <Molecule>
COc1ccc(NC(=O)NCC2CC(=O)N(c3ccccc3)C2)cc1 (stereo not drawn) [SR-01000912290]

>  <Target under test>
GPR139 (Homo sapiens, UniProt Q6DWJ6)

>  <Lipophilic Efficiency (logP)>
6.11

$$$$
>  <Molecule>
O=C(Cn1nnc(-c2ccccc2)n1)NNC(=O)Cn1c(C(F)(F)F)nc2ccccc21 [SR-01000070891]

>  <Target under test>
GPR139 (Homo sapiens, UniProt Q6DWJ6)

>  <Lipophilic Efficiency (logP)>
4.93

$$$$
>  <Molecule>
CCCn1c(CCC(=O)NCCc2ccc(OCC)cc2)nc2cccnc21 [SR-01000077930]

>  <Target under test>
GPR139 (Homo sapiens, UniProt Q6DWJ6)

>  <Lipophilic Efficiency (logP)>
4.55

$$$$
>  <Molecule>
N#C/C(=C/c1ccc(CNS(=O)(=O)c2ccccc2)o1)C(=O)NCCc1ccccc1 [SR-01000318079]

>  <Target under test>
GPR139 (Homo sapiens, UniProt Q6DWJ6)

>  <Lipophilic Efficiency (logP)>
3.77

$$$$
>  <Molecule>
CCOc1nn(CC)cc1-c1nnc(SCc2ccc(C(=O)OC)cc2)n1C [SR-01000919746]

>  <Target under test>
GPR139 (Homo sapiens, UniProt Q6DWJ6)

>  <Lipophilic Efficiency (logP)>
3.89

$$$$
>  <Molecule>
CCCCCc1cc(C2=CCC=C2)ccc1CC(=O)C1CCc2ccccc2C1 (stereo not drawn) [SR-00000004451]

>  <Target under test>
GPR139 (Homo sapiens, UniProt Q6DWJ6)

>  <Lipophilic Efficiency (logP)>
4.33

$$$$
>  <Molecule>
Cc1cccnc1CNC(=O)CCC1(Cc2cccc3ccccc23)CCC(=O)N1 (stereo not drawn) [SR-01000207758]

>  <Target under test>
GPR139 (Homo sapiens, UniProt Q6DWJ6)

>  <Lipophilic Efficiency (logP)>
3.82

$$$$
>  <Molecule>
CCCc1cc(=O)n2[nH]c(NCc3ccccc3F)nc2n1 [SR-01000100493]

>  <Target under test>
GPR139 (Homo sapiens, UniProt Q6DWJ6)

>  <Lipophilic Efficiency (logP)>
3.60

$$$$

====

- Target under test: GPR139 (Homo sapiens, UniProt Q6DWJ6)
- Assay info: GPR139 Agonist titration / agonist counterscreen assay (calcium detection, HEK-GPR139 cells)
- Type: cell-based
- Parameters: expressed in transfected cells; host or cells: HEK Aequorin cells, Maxcyte transient transfection
- Test context: GPR139 Agonist Activity; based on logP
Please mark Yes if the recorded Lipophilic Efficiency (logP) is equal to or greater than 5, and No if it falls below.

>  <Compound>
CC(C)CCNC(=O)C1C2C=CC3(CN(Cc4ccccc4Cl)C(=O)C13)O2 (stereo not drawn)

>  <Target under test>
GPR139 (Homo sapiens, UniProt Q6DWJ6)

>  <Assigned category>
Yes

$$$$
>  <Compound>
CN(C(=O)CN1C(=O)NC(C)(c2ccc3ccccc3c2)C1=O)C1CCCCC1 (stereo not drawn)

>  <Target under test>
GPR139 (Homo sapiens, UniProt Q6DWJ6)

>  <Assigned category>
No

$$$$
>  <Compound>
COc1ccc(OC)c(NC(=O)NNC(=O)C(C)Oc2ccc(Cl)cc2Cl)c1 (stereo not drawn)

>  <Target under test>
GPR139 (Homo sapiens, UniProt Q6DWJ6)

>  <Assigned category>
No

$$$$
>  <Compound>
Cc1cccc(CCNC(=O)c2c[nH]c3cc(-c4cn[nH]c4)ccc23)c1

>  <Target under test>
GPR139 (Homo sapiens, UniProt Q6DWJ6)

>  <Assigned category>
No

$$$$
>  <Compound>
CCc1nn(CC(=O)NCc2cccc(Br)c2)c(=O)c2cc3occc3n12

>  <Target under test>
GPR139 (Homo sapiens, UniProt Q6DWJ6)

>  <Assigned category>
Yes

$$$$
>  <Compound>
O=C(CSc1ccc(Cl)cc1)NNC(=O)c1ccc(O)cc1

>  <Target under test>
GPR139 (Homo sapiens, UniProt Q6DWJ6)

>  <Assigned category>
Yes

$$$$
>  <Compound>
Cc1c2cnn(CC(=O)NC(C)c3ccccc3)c(=O)c2c(C)n1Cc1ccc(F)cc1 (stereo not drawn)

>  <Target under test>
GPR139 (Homo sapiens, UniProt Q6DWJ6)

>  <Assigned category>
No

$$$$
>  <Compound>
O=C(Cc1ccccc1)CC1C=CC2=C1c1ccccc1CC2 (stereo not drawn)

>  <Target under test>
GPR139 (Homo sapiens, UniProt Q6DWJ6)

>  <Assigned category>
No

$$$$
>  <Compound>
Cn1c(CC(=O)NNC(=O)CSc2ccc3ccccc3c2)nc2ccccc21

>  <Target under test>
GPR139 (Homo sapiens, UniProt Q6DWJ6)

>  <Assigned category>
Yes

$$$$
>  <Compound>
Cc1ccc2c(c1)-c1c(cnn1CC(=O)Nc1ccccn1)CO2

>  <Target under test>
GPR139 (Homo sapiens, UniProt Q6DWJ6)

>  <Assigned category>
No

$$$$
>  <Compound>
COc1ccc(CCNC(=O)c2cccc(-c3ccc(OC)nc3)c2)cc1

>  <Target under test>
GPR139 (Homo sapiens, UniProt Q6DWJ6)

>  <Assigned category>
No

$$$$
>  <Compound>
C=C(CC1C=CC2=C1c1ccccc1CC2)Nc1ccc(CC)cc1 (stereo not drawn)

>  <Target under test>
GPR139 (Homo sapiens, UniProt Q6DWJ6)

>  <Assigned category>
No

$$$$
>  <Compound>
Cc1ccc(CCNC(=O)Cn2cc3c(n2)CCCCC3)cc1

>  <Target under test>
GPR139 (Homo sapiens, UniProt Q6DWJ6)

>  <Assigned category>
No

$$$$
>  <Compound>
O=C1N2CN(Cc3ccccc3)CN3C(=O)N4CN(Cc5ccccc5)CN1C4C23 (stereo not drawn)

>  <Target under test>
GPR139 (Homo sapiens, UniProt Q6DWJ6)

>  <Assigned category>
No

$$$$
>  <Compound>
COc1ccccc1NC(=O)NNC(=O)CSc1cc(C)c(Br)cc1C

>  <Target under test>
GPR139 (Homo sapiens, UniProt Q6DWJ6)

>  <Assigned category>
No

$$$$
>  <Compound>
CCC1CCCCN1C(=O)CN1C(=O)NC(C)(c2ccc3ccccc3c2)C1=O (stereo not drawn)

>  <Target under test>
GPR139 (Homo sapiens, UniProt Q6DWJ6)

>  <Assigned category>
No

$$$$
>  <Compound>
O=C(CN1CCN(Cc2ccccc2F)C1=O)NCCc1ccc(Cl)cc1

>  <Target under test>
GPR139 (Homo sapiens, UniProt Q6DWJ6)

>  <Assigned category>
No

$$$$
